src = patent US20190106487A1

tgt: T1, human IL-1RAcP on 293T/17-FR cells (human, UniProt Q9NPH3 21-570)
T1 sequence (looked up): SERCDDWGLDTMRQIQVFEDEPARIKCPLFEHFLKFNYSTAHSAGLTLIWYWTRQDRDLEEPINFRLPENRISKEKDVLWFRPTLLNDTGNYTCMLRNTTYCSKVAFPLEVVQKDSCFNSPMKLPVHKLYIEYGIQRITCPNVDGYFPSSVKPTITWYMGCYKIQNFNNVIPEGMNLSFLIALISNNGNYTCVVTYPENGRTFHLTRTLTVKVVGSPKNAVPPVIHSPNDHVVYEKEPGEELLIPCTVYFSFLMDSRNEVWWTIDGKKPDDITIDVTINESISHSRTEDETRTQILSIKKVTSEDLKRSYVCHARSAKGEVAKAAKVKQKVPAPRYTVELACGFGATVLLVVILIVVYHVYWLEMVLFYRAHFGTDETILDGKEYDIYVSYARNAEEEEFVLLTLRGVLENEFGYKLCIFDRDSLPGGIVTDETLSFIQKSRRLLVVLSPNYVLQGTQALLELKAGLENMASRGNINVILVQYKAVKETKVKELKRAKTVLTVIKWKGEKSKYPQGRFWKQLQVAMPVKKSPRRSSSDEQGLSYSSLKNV
test-details: cell-based or functional assay
metric: functional reporter gene assay (% inhibition), 1 µg/mL mAb (%)
Write the number in % without appending the unit.

Before answering, review these 2 worked examples.
binder	output-unit	recorded-measurement
P013.S.01.B.F06 (antibody, V domains shown, rabbit monoclonal antibody; also called P013.A.00045.E09) VH: QSVEESGGRLVTPGTPLTLTCTVSGIDLSSDAVGWVRQAPGKGLEYIGIIVSSGETFYASWARGRCTISKTSSTTVDLRITRLTTEDTATYFCARGGPGYSFDTEYAFDPWGPGTLVTVSS VL: AFEMTQTPASVEVAVGGTVTINCQASQSIGSWLSWYQQKVGQRPKLLISRASTLASGVPSRFKGSGSGTEYTLTISGVQSDDAATFYCQQGATTYDVDNVFGGGTEVVVR	%	68
P013.S.02.B.E04 (antibody, V domains shown, rabbit monoclonal antibody; also called P013.A.00088.A02) VH: QSLEESGGDLVKPGASLTLTCTASGFSLSSGGMSWVRQAPGKGLGWIGYINTGSGSTYYASWVNGRFTISKTSSTTVSLQMTSLTAADTATYFCAGGLPSDLWGPGTLVTVSS VL: DIVMTQTPSSVEAAVGGTVTIKCQASQSINSRLAWYQQKPGQPPKLLIYSASTLASGVSSRFKGSGSGTEFTLTISDLESADGATYYCLSHYLTSSSSYGDAFGGGTEVVVK	%	8

So for P013.S.02.B.B03 (antibody, V domains shown, rabbit monoclonal antibody; also called P013.A.00045.F11) VH: QEQLEESGGDLVKPEGSLTLTCTASGFSFSSNYWICWVRQAPGKGLELIACIYTSTGNTWYASWAKGRFTISKTSSTTVTLQMTSLTVADTATYFCARDLLVVTSFNLWGQGTLVTVSS VL: ALVMTQTPSPVSAAVGGTVTINCQASEDIYSNLAWFQQKPGQPPKLLIYGASTLASGVPSRFSGSGSGTEFTLTISGVQSDDAATYYCLGVCTDISTDDLYNAFGGGTELVVK , the logged functional reporter gene assay (% inhibition), 1 µg/mL mAb turned out to be 78
